protocolDescription: self-splicing fitness, log relative to wild type (ln ratio); higher = more splicing; Tetrahymena group I intron in knt gene, E. coli kanamycin selection, DiMSum; sequences stand for … in CUCUCU…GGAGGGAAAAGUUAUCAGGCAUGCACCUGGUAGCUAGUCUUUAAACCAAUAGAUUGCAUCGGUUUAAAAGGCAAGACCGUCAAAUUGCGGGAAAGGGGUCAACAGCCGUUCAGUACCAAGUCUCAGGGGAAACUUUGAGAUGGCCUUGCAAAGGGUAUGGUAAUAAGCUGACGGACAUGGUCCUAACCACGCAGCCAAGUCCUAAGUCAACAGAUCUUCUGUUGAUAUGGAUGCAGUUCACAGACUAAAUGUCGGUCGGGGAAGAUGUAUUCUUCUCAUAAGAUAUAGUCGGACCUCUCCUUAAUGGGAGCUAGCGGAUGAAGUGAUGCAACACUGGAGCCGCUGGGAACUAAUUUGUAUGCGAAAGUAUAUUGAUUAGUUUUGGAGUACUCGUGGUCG;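 also: selection with 25 µg/mL kanamycin versus none on LB agar overnight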
conditionLabel: 37 °C
assayReadout: self-splicing fitness (ln)

sequenceInput: CAGAAGCAAUAUUACGUGGA
self-splicing fitness (ln): -3.1

sequenceInput: CUUCAGCAAUAUUACGUCCA
self-splicing fitness (ln): -2.63

sequenceInput: UAGAAGCAAUAUUACGAUGC
self-splicing fitness (ln): -0.852

**Q:** Kindly indicate its recorded self-splicing fitness (ln). Item: `CUAGAGCAAUAUUACGAGGA`
**A:** -2.53

**Q:** For the sequence `UGGGAGCAAUAUUACGAAUG` , give its reported self-splicing fitness (ln).
**A:** -2.07

**Q:** Fill in reported self-splicing fitness (ln) for this entry: `CCGAAGCAAUAUUACGGUUG`
**A:** -0.955

**Q:** Fill in self-splicing fitness (ln) for record `AGUGAGCAAUAUUACGCGCG`
**A:** -1.83

**Q:** Item `GUUUAGCAAUAUUACGAAGG` : provide self-splicing fitness (ln)
**A:** -1.37

**Q:** // Input: `GAUUAGCAAUAUUACGCUAG` . Output its self-splicing fitness (ln) only.
**A:** -0.989

**Q:** Entry `UGAAAGCAAUAUUACGCUGG` needs its self-splicing fitness (ln) filled in; supply it.
**A:** -1.27

**Q:** # return recorded self-splicing fitness (ln) for input `AUGAAGCAAUAUUACGAGCC`
**A:** -3.27

**Q:** Using the record for `AGAGAGCAAUAUUACGAUGU` , state its measured self-splicing fitness (ln).
**A:** -2.69

**Q:** Name the recorded self-splicing fitness (ln) of the sequence listed here: `CUACAGCAAUAUUACGUCCG`
**A:** 0.368

**Q:** Answer with the recorded self-splicing fitness (ln) of `ACCUAGCAAUAUUACGGAGG` only.
**A:** -2.16

**Q:** Answer with reported self-splicing fitness (ln) of `AUGGAGCAAUAUUACGACAG`
**A:** -0.415

**Q:** Quickly give me recorded self-splicing fitness (ln) for `CUGUAGCAAUAUUACGAGUC`
**A:** -2.05

---

# Lookup of reported self-splicing fitness (ln) keyed by entry
protocolDescription: self-splicing fitness, log relative to wild type (ln ratio); higher = more splicing; Tetrahymena group I intron in knt gene, E. coli kanamycin selection, DiMSum; sequences stand for … in CUCUCU…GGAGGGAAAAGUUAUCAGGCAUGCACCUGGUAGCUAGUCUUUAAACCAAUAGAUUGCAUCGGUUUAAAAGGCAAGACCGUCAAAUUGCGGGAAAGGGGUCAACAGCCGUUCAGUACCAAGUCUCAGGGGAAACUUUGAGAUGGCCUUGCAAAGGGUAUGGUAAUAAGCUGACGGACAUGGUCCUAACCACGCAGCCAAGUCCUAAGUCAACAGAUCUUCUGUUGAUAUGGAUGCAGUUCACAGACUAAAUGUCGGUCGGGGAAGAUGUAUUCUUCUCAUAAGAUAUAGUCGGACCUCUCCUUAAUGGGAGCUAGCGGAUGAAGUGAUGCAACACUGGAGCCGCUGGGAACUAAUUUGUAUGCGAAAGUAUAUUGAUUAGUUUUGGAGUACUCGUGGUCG
conditionLabel: 37 °C
I'd appreciate a reply containing only the number, no unit.

The cases that follow already have their self-splicing fitness (ln) on record.
sequenceInput: GUAAAGCAAUAUUACGCGAC
assayReadout: self-splicing fitness (ln)
experimentalResult: 1.71
//
sequenceInput: CACCAGCAAUAUUACGGCCA
assayReadout: self-splicing fitness (ln)
experimentalResult: -1.22
//
sequenceInput: ACUCAGCAAUAUUACGCAAC
assayReadout: self-splicing fitness (ln)
experimentalResult: -2.43
//
sequenceInput: GAUAAGCAAUAUUACGAUGA
assayReadout: self-splicing fitness (ln)
experimentalResult: -0.376
//
sequenceInput: CCCGAGCAAUAUUACGUCGG
assayReadout: self-splicing fitness (ln)
experimentalResult: -2.41

**Q:** Note down self-splicing fitness (ln) recorded for `GCUCAGCAAUAUUACGCUGG`
**A:** -2.27

**Q:** Please look at this sequence and report its self-splicing fitness (ln): `GACCAGCAAUAUUACGUGGU`
**A:** -3.29

**Q:** Specify measured self-splicing fitness (ln) for `UAGUAGCAAUAUUACGAUGA` .
**A:** -1.7

**Q:** Tell me its self-splicing fitness (ln) given `ACGGAGCAAUAUUACGCUAG` as the entry.
**A:** -2.16

**Q:** Determine from records and report self-splicing fitness (ln) for `GUGGAGCAAUAUUACGAGCA`
**A:** -1.93

**Q:** Provide measured self-splicing fitness (ln) value, entry: `GCUAAGCAAUAUUACGUGCA`
**A:** -0.212

**Q:** Read off the recorded self-splicing fitness (ln) for `AUAAAGCAAUAUUACGUCGC`
**A:** -1.41

**Q:** Supply self-splicing fitness (ln) value. Item: `GAUGAGCAAUAUUACGAAUG`
**A:** -2.67

**Q:** For the sequence `ACCGAGCAAUAUUACGUGCU` , report self-splicing fitness (ln).
**A:** -2.49

**Q:** Note self-splicing fitness (ln) for the sequence shown: `GAGCAGCAAUAUUACGCCCA`
**A:** 0.255

**Q:** # return recorded self-splicing fitness (ln) for input `AAUUAGCAAUAUUACGGCAA`
**A:** -0.497

---

protocolDescription: self-splicing fitness, log relative to wild type (ln ratio); higher = more splicing; Tetrahymena group I intron in knt gene, E. coli kanamycin selection, DiMSum; sequences stand for … in CUCUCU…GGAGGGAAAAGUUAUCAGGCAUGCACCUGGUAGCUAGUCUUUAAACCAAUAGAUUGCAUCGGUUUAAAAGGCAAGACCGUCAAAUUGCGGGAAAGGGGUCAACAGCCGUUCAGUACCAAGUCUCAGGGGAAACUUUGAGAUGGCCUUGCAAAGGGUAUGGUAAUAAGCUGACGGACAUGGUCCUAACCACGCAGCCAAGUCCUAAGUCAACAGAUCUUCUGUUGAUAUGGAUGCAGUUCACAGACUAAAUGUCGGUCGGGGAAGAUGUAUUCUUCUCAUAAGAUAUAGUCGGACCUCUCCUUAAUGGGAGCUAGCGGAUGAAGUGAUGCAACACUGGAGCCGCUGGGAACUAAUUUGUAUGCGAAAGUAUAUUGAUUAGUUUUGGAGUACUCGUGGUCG
conditionLabel: 37 °C
Catalogue of sequences with associated self-splicing fitness (ln)
Please reply with the number alone, leaving off any unit.

Field: example entries. Status: answers known.
sequenceInput: GACGAGCAAUAUUACGGCAG
self-splicing fitness (ln): -2.51
--
sequenceInput: GCACAGCAAUAUUACGGUUU
self-splicing fitness (ln): 0.145
--
sequenceInput: UCAAAGCAAUAUUACGGUUG
self-splicing fitness (ln): -0.732
--
sequenceInput: CGUGAGCAAUAUUACGGCUG
self-splicing fitness (ln): 0.0364
--
sequenceInput: AGUUAGCAAUAUUACGAAGG
self-splicing fitness (ln): -3.4
--
sequenceInput: ACCAAGCAAUAUUACGGGGC
self-splicing fitness (ln): -2.1

**Q:** Consider the sequence `UGAUAGCAAUAUUACGGUUA` and give its recorded self-splicing fitness (ln).
**A:** -0.467

**Q:** For `CGUCAGCAAUAUUACGACAA` , write its self-splicing fitness (ln).
**A:** 0.0303

**Q:** Please look at this sequence and report its self-splicing fitness (ln): `AUCAAGCAAUAUUACGGGAA`
**A:** -0.563

**Q:** Write down self-splicing fitness (ln) measured for item `GUAUAGCAAUAUUACGGUGA`
**A:** -0.645

**Q:** Give self-splicing fitness (ln) for `ACGUAGCAAUAUUACGUGAG`
**A:** -2.55

---

self-splicing fitness (ln) reference
protocolDescription: self-splicing fitness, log relative to wild type (ln ratio); higher = more splicing; Tetrahymena group I intron in knt gene, E. coli kanamycin selection, DiMSum; sequences stand for … in CUCUCU…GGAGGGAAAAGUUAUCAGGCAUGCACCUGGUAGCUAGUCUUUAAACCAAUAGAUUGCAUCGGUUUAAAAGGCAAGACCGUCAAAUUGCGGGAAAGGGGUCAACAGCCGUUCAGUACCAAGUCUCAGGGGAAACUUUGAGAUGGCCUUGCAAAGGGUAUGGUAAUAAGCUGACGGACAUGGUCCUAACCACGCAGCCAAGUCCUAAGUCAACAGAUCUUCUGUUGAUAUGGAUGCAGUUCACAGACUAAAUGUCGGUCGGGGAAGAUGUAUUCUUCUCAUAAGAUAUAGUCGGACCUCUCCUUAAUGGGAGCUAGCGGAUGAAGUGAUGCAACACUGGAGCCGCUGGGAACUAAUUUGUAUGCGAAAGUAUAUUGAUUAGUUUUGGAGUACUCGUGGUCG
conditionLabel: 37 °C
Answer using only a numeral; do not append any unit.

sequenceInput: GCUCAGCAAUAUUACGAGCG
self-splicing fitness (ln): -0.923
--
sequenceInput: AGGAAGCAAUAUUACGUCUU
self-splicing fitness (ln): -1.59
--
sequenceInput: GGCUAGCAAUAUUACGGUCU
self-splicing fitness (ln): -0.649
--
sequenceInput: CUUGAGCAAUAUUACGGGCC
self-splicing fitness (ln): -2.81
--
sequenceInput: GACUAGCAAUAUUACGCCAU
self-splicing fitness (ln): -1.32
--
sequenceInput: UGGCAGCAAUAUUACGCUGU
self-splicing fitness (ln): -2.18
--
sequenceInput: GGCAAGCAAUAUUACGGUUU
self-splicing fitness (ln): 0.232
--
sequenceInput: CGCCAGCAAUAUUACGACUA
self-splicing fitness (ln): -2.13
--
sequenceInput: ACAGAGCAAUAUUACGUAUC
self-splicing fitness (ln): -1.46
--
sequenceInput: UGUUAGCAAUAUUACGAUUU
self-splicing fitness (ln): -1.55

**Q:** Supply self-splicing fitness (ln) value. Item: `AUAGAGCAAUAUUACGCGAA`
**A:** -1.1

**Q:** Report self-splicing fitness (ln) for `CGUCAGCAAUAUUACGACUG`
**A:** 0.699

**Q:** Assign self-splicing fitness (ln) to the following record: `UUUUAGCAAUAUUACGGGUG`
**A:** -0.739
